Target: T1, recombinant ILT2 (human) (human, UniProt Q8NHL6 24-461)
T1 construct: also called recombinant ILT2 peptide; ILT2 protein
T1 sequence (Q8NHL6 24-461 limits assumed): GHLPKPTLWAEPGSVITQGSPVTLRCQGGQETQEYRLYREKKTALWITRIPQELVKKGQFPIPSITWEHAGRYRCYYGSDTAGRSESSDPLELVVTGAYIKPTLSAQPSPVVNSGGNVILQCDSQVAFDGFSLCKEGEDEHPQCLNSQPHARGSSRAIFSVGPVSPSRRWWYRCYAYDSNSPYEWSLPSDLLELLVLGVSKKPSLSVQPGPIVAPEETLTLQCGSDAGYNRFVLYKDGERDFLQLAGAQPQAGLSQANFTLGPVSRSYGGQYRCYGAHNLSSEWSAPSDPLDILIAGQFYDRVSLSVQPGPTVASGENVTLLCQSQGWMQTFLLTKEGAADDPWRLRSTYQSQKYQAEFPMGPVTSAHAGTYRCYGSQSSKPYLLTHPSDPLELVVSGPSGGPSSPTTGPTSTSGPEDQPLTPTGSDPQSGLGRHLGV
Test: SPR (Biacore T200), HEK EBNA supernatants on recombinant ILT2 peptide
Method: During grafting of the 15G8 CDRs, five heavy chains and four kappa light chains were generated. These chains were designated VH1-5 and Vk1-4. By combining each heavy chain with each light chain twenty different resultant antibodies are possible. All twenty possible antibodies were transiently expressed in HEK EBNA cells, and the supernatants were tested for binding to recombinant ILT2 peptide using a Biacore T200. The chimeric 15G8 antibody was used as control.
Parameter: kon. Scope: all listed entries.

humanized 15G8 VH4/Vk2 (antibody, IgG4, V domains shown, Humanized IgG4 (S228P, L235E), kappa; tested as supernatant of transiently transfected HEK EBNA cells) VH: QVQLQGSGPGLVKPSETLSLTCSVTGYSITSGYYWNWIRQPPGKGLEWMGYISYDGSNNYNPSLKNRVTISRDTSKNQFSLKLSSVTAADTATYYCAHGYSYYYAMDAWGQGTTVTVSS VL: DIQMTQSPSSLSASVGDRVTITCRTSQDISNYLNWYQQKPGKAVKLLISYTSRLHSGVPSRFSGSGSGTDYTLTISSLQPEDFATYFCQQGNTLPTFGQGTKLEIK :: 690000 M⁻¹ s⁻¹
15G8-32 (humanized 15G8, VH3/Vk2) (antibody, human IgG4 S228P, kappa, V domains shown, Humanized IgG4 (S228P, L235E), kappa) VH: DVQLQGSGPGLVKPSETLSLTCSVTGYSITSGYYWNWIRQPPGKGLEWMGYISYDGSNNYNPSLKNRITISRDTSKNQFSLKLSSVTAADTATYYCAHGYSYYYAMDAWGQGTTVTVSS VL: DIQMTQSPSSLSASVGDRVTITCRTSQDISNYLNWYQQKPGKAVKLLISYTSRLHSGVPSRFSGSGSGTDYTLTISSLQPEDFATYFCQQGNTLPTFGQGTKLEIKR :: 811000 M⁻¹ s⁻¹

Kindly consider the entry below.
[ask] Fill in: kon of chimeric 15G8 antibody (antibody, V domains shown, Chimeric form of murine 15G8) VH: DVQLQGSGPGLVKPSQSLSLTCSVTGYSITSGYYWNWIRQFPGNKLEWMGYISYDGSNNYNPSLKNRISITRDTSKNQFFLKLNSVTSEDTATYYCAHGYSYYYAMDCWGQGTSVTVSS VL: DIQMTQTTSSLSASLGDRVTISCRTSQDISNYLNWYQQKPDGTVKLLISYTSRLHSGVPSRFSGSGSGTDYSLTISNLEQEDIATYFCQQGNTLPTFGSGTKLEIK is ___
[reply] 808000 M⁻¹ s⁻¹

Source listed as patent US20220048991A1.
